For each entry below, report its Delta (micromoles fecal bile acid per day) value.
- Tested on: fecal bile acid (FBA)
- Assay method text: Rat gavage assay (fecal bile acid increase)
- Format: in vivo
- Experimental setup: dose .016 mg/kg/day

stdin: I would be grateful if you could share the reported Delta (micromoles fecal bile acid per day) for `CCCCC1(CCCC)CS(=O)(=O)c2ccc(N(C)C)cc2[C@@H](c2ccc(OCCCCCNCCc3cnc[nH]3)cc2)[C@H]1O` .
stdout: 29.3 micromoles fecal bile acid per day

stdin: Given the compound `CCCCC1(CCCC)CS(=O)(=O)c2ccc(N(C)C)cc2[C@@H](c2ccc(OCCCC[N+](CC)(CC)CC)cc2)[C@H]1O.CS(=O)(=O)[O-]` , what is its reported Delta (micromoles fecal bile acid per day)?
stdout: 20.4 micromoles fecal bile acid per day

stdin: Item `CCCCC1(CCCC)CS(=O)(=O)c2ccc(N(C)C)cc2[C@@H](c2ccc(OCc3cccc(CCC(=O)O)n3)cc2)[C@H]1O` has what recorded Delta (micromoles fecal bile acid per day)?
stdout: −5.6 micromoles fecal bile acid per day

====

- Assayed target: human IBAT (Homo sapiens)
- Construct: expressed in transfected cells; host or cells: Baby hamster kidney (BHK) cells, clone H14
- Assay method text: In vitro assay of IBAT-mediated uptake of [14C]-taurocholate (TC) in H14 cells
- Format: cell-based
- Experimental setup: In Vitro Taurocholate Uptake, Table 10; read-out: Human TC IC50
So I've got a bunch of molecules here, and I need their pIC50 values.
Note: pIC50 values are expressed as the negative base-10 logarithm of concentration in M.

stdin: Fill blank: measured pIC50 of the molecule `CCCCC1(CCCC)CS(=O)(=O)c2ccc(N(C)C)cc2[C@@H](c2ccc(OCc3cccc(CN(CC(=O)O)CC(=O)O)n3)cc2)[C@H]1O` is ____.
stdout: 8.30

stdin: Entry CCCCC1(CCCC)CS(=O)(=O)c2ccc(N(C)C)cc2[C@@H](c2ccc(OCCCC[N+]34CCN(CC3)CC4)cc2)[C@H]1O [Example 1409] : reported pIC50 = ?
stdout: 9.05

stdin: # input molecule: `CCCCC1(CCCC)CS(=O)(=O)c2ccc(N(C)C)cc2[C@@H](c2ccc(OCCCCCN(CC)CC)cc2)[C@H]1O` ; wanted: its pIC50
stdout: 7.82

stdin: Find the recorded pIC50 belonging to CCCCC1(CCCC)CS(=O)(=O)c2ccc(N(C)C)cc2[C@@H](c2ccc(OCCCC[N+]34CCN(CC3)CC4)cc2)[C@H]1O [Example 1408] and report it.
stdout: 9.00

stdin: Bench note: what pIC50 did `CCCCC1(CCCC)CS(=O)(=O)c2ccc(N(C)C)cc2[C@@H](c2ccc(OCc3ccc(C(=O)O)cc3)cc2)[C@H]1O` show?
stdout: 7.85

stdin: Tell me the measured pIC50 of `CCCCC1(CCCC)CS(=O)(=O)c2ccc(N(C)C)cc2[C@@H](c2ccc(OCCCCC[n+]3cccc4ccccc43)cc2)[C@H]1O` , please.
stdout: 8.52

====

- Assayed target: human IBAT (Homo sapiens)
- Construct: expressed in transfected cells; host or cells: Baby hamster kidney (BHK) cells, clone H14
- Sequence (Q12908 1-348): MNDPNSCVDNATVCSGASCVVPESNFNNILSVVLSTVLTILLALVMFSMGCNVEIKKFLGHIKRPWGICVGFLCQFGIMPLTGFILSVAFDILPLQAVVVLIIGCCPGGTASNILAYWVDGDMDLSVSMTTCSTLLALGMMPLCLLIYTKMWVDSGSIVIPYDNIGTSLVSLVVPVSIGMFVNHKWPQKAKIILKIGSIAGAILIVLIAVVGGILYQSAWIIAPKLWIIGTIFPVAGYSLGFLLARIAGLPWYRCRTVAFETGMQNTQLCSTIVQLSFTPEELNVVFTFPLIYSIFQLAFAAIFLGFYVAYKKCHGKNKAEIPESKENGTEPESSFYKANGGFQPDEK
- Assay method text: In vitro assay of IBAT-mediated uptake of [14C]-taurocholate (TC) in H14 cells
- Type: cell-based
- Experimental setup: read-out: Human TC IC50
Field: log10(IC50). Provide a value for each of the compounds that follow.
Heads up: the numbers are on a log10 scale; they represent IC50 in µM.

stdin: // lookup log10(IC50) | system=human IBAT (Homo sapiens) | key= CCCCC1(CCCC)CS(=O)(=O)c2ccc(N(C)C)cc2C(c2cccc(OCCOCCOCC[n+]3ccncc3)c2)C1O (stereo not shown) [Example 1057]
stdout: -2.52

stdin: Give recorded log10(IC50) with human IBAT (Homo sapiens) for the following compound: CCCCC1(CCCC)CS(=O)(=O)c2ccc(F)cc2C(c2cccc(OC)c2)C1O (stereo not shown) [Example 1183]
stdout: -0.55

stdin: Please state recorded log10(IC50) (tested on human IBAT (Homo sapiens)) of CCCCC1(CCCC)CS(=O)(=O)c2ccc(N(C)C)cc2C(c2cccc(OCC[N+](CC)(CC)CC)c2)C1O (stereo not shown) [Example 1087]
stdout: -2.30

stdin: Requested read-out log10(IC50), target or system human IBAT (Homo sapiens), entry CCCCC1(CCCC)CS(=O)(=O)c2ccc(N(C)C)cc2C(c2ccc(OCCOCCBr)c(F)c2)C1O (stereo not shown) [Example 1239]
stdout: -1.46

stdin: Reported log10(IC50) for human IBAT (Homo sapiens), given CCCCC1(CCCC)CS(=O)(=O)c2ccc(N(C)C)cc2C(c2cccc(NC(=O)CCBr)c2)C1O (stereo not shown) [Example 1097] ?
stdout: -2.22

stdin: Under human IBAT (Homo sapiens): log10(IC50) value of CCCCC1(CCCC)CS(=O)(=O)c2ccc(N(C)C)cc2C(c2ccc(OCCOCC[n+]3ccccc3)c(F)c2)C1O (stereo not shown) [Example 1049] ?
stdout: -2.52

stdin: Fill in the recorded log10(IC50) for this compound, with human IBAT (Homo sapiens) as test system: CCCCC1(CC)CS(=O)(=O)c2ccc(N(C)C)cc2C(c2ccc3c(c2)OCO3)C1O (stereo not shown) [Example 1088]
stdout: -2.26

stdin: Look up log10(IC50) with human IBAT (Homo sapiens) for this compound: CCCCC1(CC)CS(=O)(=O)c2ccc(NO)cc2C(c2ccccc2)C1O (single isomer, unassigned) [Example 1314]
stdout: -0.59

stdin: Fill in the recorded log10(IC50) for this compound, with human IBAT (Homo sapiens) as test system: CCCCC1(CCCC)CS(=O)(=O)c2ccc(F)cc2C(c2cccc([N+](=O)[O-])c2)C1O (stereo not shown) [Example 1224]
stdout: -0.48

stdin: Provide the documented log10(IC50) with human IBAT (Homo sapiens) as the system for CCCCC1(CCCC)CS(=O)(=O)c2ccc(N(C)C)cc2C(c2ccc(OS(=O)(=O)C(F)(F)F)cc2)C1O (stereo not shown) [Example 1171]
stdout: -0.85

stdin: Give the reported log10(IC50) for CCCCC1(CC)CS(=O)(=O)c2ccc(N(C)C)cc2C(c2ccc(O)cc2)C1O (single isomer, unassigned) [Example 1078] (system: human IBAT (Homo sapiens)).
stdout: -2.35

stdin: Short answer please: log10(IC50), human IBAT (Homo sapiens), entry CCCCCC[N+](CCCCCC)(CCCCCC)CCOCCOCCOc1cccc(C2c3cc(N(C)C)ccc3S(=O)(=O)CC(CCCC)(CCCC)C2O)c1 (stereo not shown) [Example 1279]
stdout: -1.55

stdin: Look up log10(IC50) with human IBAT (Homo sapiens) for this compound: CCCC[C@]1(CC)CS(=O)(=O)c2cc(OCCOCCOCC[N+](C)(C)C)ccc2[C@@H](c2ccccc2)[C@H]1O [Example 125]
stdout: 1.26

stdin: Provide the documented log10(IC50) with human IBAT (Homo sapiens) as the system for CCCCC1(CCCC)CS(=O)(=O)c2ccc(N(C)C)cc2C(c2ccc(OCCOCCOCC[N+]3(C)CCCN(C)CCN(C)CCCN(C)CC3)cc2)C1O (stereo not shown) [Example 1055]
stdout: -2.52

stdin: For human IBAT (Homo sapiens), provide log10(IC50) of CCCCC1(CCCC)CS(=O)(=O)c2ccc(N(C)C)cc2C(c2ccc(OCCC[N+](CCCC)(CCCC)CCCC)c(F)c2)C1O (stereo not shown) [Example 1286] please.
stdout: -1.17

stdin: Give human IBAT (Homo sapiens) log10(IC50) for CCCCC1(CC)CS(=O)(=O)c2ccc(C)cc2C(c2ccc(F)cc2)C1O (single isomer, unassigned) [Example 282]
stdout: -1.68

stdin: Can you look up log10(IC50) on human IBAT (Homo sapiens) for CCCCC1(CCCC)CS(=O)(=O)c2ccc(N(C)C)cc2C(c2cccc(OCCOCCOCC[N+](CC)(CC)CC)c2)C1O (stereo not shown) [Example 1007] ?
stdout: -3.00

stdin: For the record CCCCC1(CCCC)CS(=O)(=O)c2c(F)cc(F)cc2C(c2ccc(F)cc2)C1O (stereo not shown) [Example 1184] , what value of log10(IC50) is listed for human IBAT (Homo sapiens)?
stdout: -0.55

stdin: Hi! What's the reported log10(IC50) for CCCCC1(CCCC)CS(=O)(=O)c2ccc(N(C)C)cc2C(c2cccc(OCCOCCOCC[N+](C)(C)CC(=O)OCC)c2)C1O (stereo not shown) [Example 1093] on human IBAT (Homo sapiens)?
stdout: -2.22

stdin: Notebook entry, human IBAT (Homo sapiens) assay: log10(IC50) of CCCCC1(CCCC)CS(=O)(=O)c2ccc(N(C)C)cc2C(c2ccncc2)C1O (stereo not shown) [Example 1112] = ?
stdout: -2.10

stdin: // lookup log10(IC50) | system=human IBAT (Homo sapiens) | key= CCCCC1(CC)CS(=O)(=O)c2ccc(OC)cc2C(c2ccc(F)cc2)C1O (stereo not shown) [Example 268]
stdout: -1.54

stdin: Notebook: pull reported log10(IC50) for human IBAT (Homo sapiens), entry CCCCC1(CCCC)CS(=O)(=O)c2ccc([S+](C)C)cc2C(c2ccc(F)cc2)C1O (stereo not shown) [Example 1148]
stdout: -1.52

stdin: Lab note: need log10(IC50) for CCCCC1(CCCC)CS(=O)(=O)c2ccc(N(C)C)cc2C(c2cccc(OCCOCCOCC[n+]3ccnc4ccccc43)c2)C1O (stereo not shown) [Example 1041] on human IBAT (Homo sapiens), anyone have it?
stdout: -2.52

stdin: Please provide the recorded log10(IC50) for CCCCC1(CCCC)CS(=O)(=O)c2ccc(N(C)C)cc2C(c2cccc(OCCOCCOCC[n+]3ccccc3)c2)C1O (stereo not shown) [Example 1068] , tested on human IBAT (Homo sapiens).
stdout: -2.40

stdin: Lab note: need log10(IC50) for CCCCC1(CCCC)CS(=O)(=O)c2ccc(N(C)C)cc2C(c2cccc(OCCOCCOCC[N+]3(c4ccccc4)CCCCC3)c2)C1O (stereo not shown) [Example 1294] on human IBAT (Homo sapiens), anyone have it?
stdout: -1.96

stdin: What log10(IC50) appears in the records for this compound with human IBAT (Homo sapiens)? CCCCC1(CCCC)CS(=O)(=O)c2ccc(NC)cc2C(c2ccc(F)cc2)C1O (stereo not shown) [Example 1153]
stdout: -1.43

stdin: Notebook: pull reported log10(IC50) for human IBAT (Homo sapiens), entry CCCCC1(CCCC)CS(=O)(=O)c2ccc(N(C)C)cc2C(c2ccc(OCc3cc[n+](CC(=O)OC(C)(C)C)cc3)c(F)c2)C1O (stereo not shown) [Example 1295]
stdout: -1.85

stdin: Query for human IBAT (Homo sapiens): what log10(IC50) does the record show for CCCCC1(CCCC)CS(=O)(=O)c2ccc(N(C)C)cc2C(c2ccc(OCCCCC[N+](CC)(CC)CC)c(F)c2)C1O (stereo not shown) [Example 1011] ?
stdout: -3.00

Ref: patent US6784201B2
